Experiment: Pharmacokinetics after single oral administration to rats
Assay type: in vivo, rat
Conditions: male, Wistar, rat, plasma, po, 200 mg/kg, Table S8, 200 mg/kg PO, male Wistar rats, plasma, individual Rat#13-18; read-out: Tmax
Procedure: Experiments were performed at ChemPartner, Shanghai, China and approved by Institutional Ethics Committee (IEC) of ChemPartner. Male Wistar 10–12 weeks old rats with body weights of 185–220 g and male New Zealand rabbits with body weights of 2.0–2.3 kg were purchased from Shanghai SLAC Laboratory Animal Co., Ltd. MT-SYK-03 was administered to the three groups of rats (six rats per group) via oral gavage at 10 mL/kg concentration, and in rabbits 5 mL/kg concentration. […]
quantity kind: Tmax (h)
API: value field is a number in h; no unit string.

Entry `COc1cc(Nc2ncnc(Nc3cc4c(cn3)NC(=O)C(C)(C)O4)n2)cc(OC)c1OC` ; Tmax = 2

Where do these numbers come from? They come from paper PMC8632988.
